# System: Estrogen receptor (Homo sapiens, UniProt P03372)
# Sequence (P03372 whole entry): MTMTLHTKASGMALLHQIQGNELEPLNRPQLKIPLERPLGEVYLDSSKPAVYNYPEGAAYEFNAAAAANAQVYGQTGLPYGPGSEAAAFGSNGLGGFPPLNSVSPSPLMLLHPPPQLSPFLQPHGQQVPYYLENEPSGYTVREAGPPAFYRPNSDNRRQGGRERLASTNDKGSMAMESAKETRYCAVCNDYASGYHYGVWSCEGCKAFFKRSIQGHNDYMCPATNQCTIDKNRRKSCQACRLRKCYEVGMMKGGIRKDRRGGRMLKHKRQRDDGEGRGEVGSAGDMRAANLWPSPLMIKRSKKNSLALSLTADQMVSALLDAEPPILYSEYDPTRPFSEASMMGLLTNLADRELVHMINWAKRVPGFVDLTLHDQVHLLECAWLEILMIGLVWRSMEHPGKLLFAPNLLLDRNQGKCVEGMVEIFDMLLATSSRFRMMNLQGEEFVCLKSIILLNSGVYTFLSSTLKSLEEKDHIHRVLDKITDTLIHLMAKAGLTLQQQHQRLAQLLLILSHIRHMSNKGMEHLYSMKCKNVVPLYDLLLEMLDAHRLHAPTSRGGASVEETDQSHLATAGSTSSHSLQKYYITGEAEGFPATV
# Procedure Text: Displacement of fluorescein-labeled estrogen ligand from recombinant ER-alpha (unknown origin) incubated for 2 hrs by fluorescence polarization assay
pIC50: −log10 of the molar value.
Measured Endpoint: pIC50

[1] COc1ccc2c(c1)C(=O)c1c-2n(-c2ccc(OCCCN3CCN(C)CC3)cc2)c(=O)c2cc(OC)ccc12
[2] O=C1c2cc(O)ccc2-c2c1c1ccc(O)cc1c(=O)n2-c1ccc(OCCN2CCOCC2)cc1
Could you check which of 1 and 2 has a smaller value for pIC50? Which one? Tell me its label.
1
(1: 4.45, 2: 4.70)

[A] COc1ccc2c(c1)C(=O)c1c-2n(-c2ccc(OCCN3CCN(C)CC3)cc2)c(=O)c2cc(OC)ccc12
[B] COc1ccc2c(c1)C(=O)c1c-2n(-c2ccc(OCCCN3CCCC3)cc2)c(=O)c2cc(OC)ccc12
[C] O=C1c2cc(O)ccc2-c2c1c1ccc(O)cc1c(=O)n2-c1ccc(OCCN2CCCCC2)cc1
[D] O=C1c2cc(O)ccc2-c2c1c1ccc(O)cc1c(=O)n2-c1ccc(OCCN2CCCC2)cc1
Endpoint returns the given compounds ordered by ascending pIC50. Output the labels ranked as instructed.
B, A, D, C

[a] COc1ccc2c(c1)C(=O)c1c-2n(-c2ccc(OCCCN(C)C)cc2)c(=O)c2cc(OC)ccc12
[b] COc1ccc2c(c1)C(=O)c1c-2n(-c2ccc(OCCN3CCCC3)cc2)c(=O)c2cc(OC)ccc12
Two entries are listed, a and b . Which one carries the higher pIC50? Lab note: record the label of whichever item you select.
b

Source listed as ChEMBL document CHEMBL3826943.
